test.readout: melting point (°C)

Here are 3 compounds together with their reported answers.
>>> print(df.to_string())
                                   compound  test_value
0  COc1ccccc1C1C(C#N)=C(c2cccs2)Nc2n[nH]cc21 (stereo not drawn) [Example 242]         215
1  N#CC1=C(c2ccccc2)Nc2n[nH]cc2C1c1cccc2ccccc12 (stereo not drawn) [Example 146]         174
2  N#CC1=C(c2cccs2)Nc2n[nH]cc2C1c1ccccc1[N+](=O)[O-] (stereo not drawn) [Example 244]         165

A: N#CC1=C(c2ccccc2)Nc2n[nH]cc2C1c1cccc(Cl)c1Cl (stereo not drawn) [Example 145]
B: CCCC1=C(C#N)C(c2ccccc2Cl)c2c(n[nH]c2CCC)N1 (stereo not drawn) [Example 302]
### Prompt Parameter metric = melting point. Return the lower-valued option from A and B . Provide the label of your selected option as the answer.
### Response A

* * *

test.readout: melting point (°C)

Sample answers from the record:
                                   compound   test_readout  test_value
0  COCn1cc(C2=C(C#N)C(c3cccc4nonc34)c3c[nH]nc3N2)c2ccccc21 (stereo not drawn) [Example 293]  melting point         200
1  CNCCC1=C(C#N)C(c2cccc3nonc23)c2c[nH]nc2N1 (stereo not drawn) [Example 1016]  melting point         174
2  CCCC1=C(C(=O)OCC)C(c2cccc3ccsc23)c2c[nH]nc2N1 (stereo not drawn) [Example 106]  melting point         166
3  CC1=C(C(=O)OC(C)(C)C)C(c2ccccc2Cl)c2c[nH]nc2N1 (stereo not drawn) [Example 5]  melting point         207

1: CCCC1=C(C#N)C(c2ccccc2Cl)c2c(n[nH]c2-c2ccc(OC)cc2)N1 (stereo not drawn) [Example 290]
2: CCOC(=O)C1=C(c2ccccc2)Nc2n[nH]cc2C1c1cccc2nonc12 (stereo not drawn) [Example 114]
### Prompt In the pair 1 and 2 , the larger recorded melting point belongs to which? Identify your selection by its label.
### Response 1

* * *

test.readout: melting point (°C)

>>> df
                                   molecule  test_value
0  N#CC1=C(c2cccs2)Nc2n[nH]cc2C1c1ccccc1Cl (stereo not drawn) [Example 241]         174
1  CCCC1=C([N+](=O)[O-])C(c2ccccc2Cl)c2c[nH]nc2N1 (stereo not drawn) [Example 93]         228
2  CCCC1=C(C(=O)OCC)C(c2cccc(Cl)c2Cl)c2c[nH]nc2N1 (stereo not drawn) [Example 44]         220
3  CCCC1=C([N+](=O)[O-])C(c2ccccc2[N+](=O)[O-])c2c[nH]nc2N1 (stereo not drawn)         204

* * *

test.readout: melting point (°C)

Some solved entries appear below for comparison.
In [3]: df
Out[3]:
                                   compound  units_symbol  test_value
0  CS(=O)(=O)N1CCC(C2=C(C#N)C(c3cccc4nonc34)c3c[nH]nc3N2)CC1 (stereo not drawn) [Example 1029]            °C         243
1  N#CC1=C(C2CCCCC2)Nc2n[nH]cc2C1c1cccc2nonc12 (stereo not drawn) [Example 323]            °C         210
2  CCCC1=C([N+](=O)[O-])C(c2ccccc2Br)c2c[nH]nc2N1 (stereo not drawn) [Example 118]            °C         226
3  N#CC1=C(C2CCN(C(=O)c3ccccc3)CC2)Nc2n[nH]cc2C1c1cccc2nonc12 (stereo not drawn) [Example 1026]            °C         228
4  CCCC1=C(C(=O)OCC)C(c2ccccc2OC(C)C)c2c[nH]nc2N1 (stereo not drawn) [Example 35]            °C         210

1: CCCC1=C(C#N)C(c2cccnc2)c2c[nH]nc2N1 (stereo not drawn) [Example 327]
2: CCCOC(=O)n1cc2c(n1)NC(CCC)=C(C(=O)OCC)C2c1ccccc1Cl (stereo not drawn) [Example 222]
3: COc1ccc(C2=C(C#N)C(c3ccccc3Cl)c3c[nH]nc3N2)cc1 (stereo not drawn) [Example 95]
### Prompt List these items ordered by melting point, big to small. A complete answer lists every label in the requested sequence.
### Response 1, 3, 2
(1: 201 °C, 3: 124 °C, 2: 59 °C)

* * *

test.readout: melting point (°C)

In [3]: df
Out[3]:
                                    compound  units_symbol  test_value
 0  CCCC1=C(C#N)C(c2ccccc2Cl)c2c(n[nH]c2C2CC2)N1 (stereo not shown)            °C         270
 1  CCCC1=C(C#N)C(c2cccc3nocc23)c2c[nH]nc2N1 (stereo not shown)            °C         239
 2  COC(=O)C1=C(C)Nc2n[nH]cc2C1c1ccccc1Cl (stereo not shown)            °C         235
 3  N#CC1=C(c2cccc3ccccc23)Nc2n[nH]cc2C1c1cccc2nonc12 (stereo not shown)            °C         213
 4  COc1ccc(C2=C(C#N)C(c3cccc4nsnc34)c3c[nH]nc3N2)cc1 (stereo not shown)            °C         238
 5  N#CC1=C(c2ccncc2)Nc2n[nH]cc2C1c1cccc2nonc12 (stereo not shown)            °C         236
 6  CCCC1=C(C(=O)OCC)C(c2csc3ccccc23)c2c[nH]nc2N1 (stereo not shown)            °C         222
 7  N#CC1=C(C2CCCC2)Nc2n[nH]cc2C1c1ccccc1Cl (stereo not shown)            °C         225
 8  CC1=C(C(=O)N(C)C)C(c2ccccc2Cl)c2c[nH]nc2N1 (stereo not shown)            °C         229
 9  CCCCC1=C(C#N)C(c2cccc3nonc23)c2c[nH]nc2N1 (stereo not shown)            °C         200
10  CC(C)N1CCC(C2=C(C#N)C(c3cccc4nonc34)c3c[nH]nc3N2)CC1 (stereo not shown)            °C         260
11  COc1cccc(C2=C(C#N)C(c3cccc4nsnc34)c3c[nH]nc3N2)c1 (stereo not shown)            °C         220
12  COc1ccccc1C1=C(C#N)C(c2cccc3nsnc23)c2c[nH]nc2N1 (stereo not shown)            °C         231

* * *

test.readout: melting point (°C)

                                   compound  test_value
0  CNCC1=C(C#N)C(c2cccc3nonc23)c2c[nH]nc2N1.O=C(O)C(F)(F)F (stereo not drawn)         174
1  CCCC1=C(C#N)C(c2cccc3c2OCCC3)c2c[nH]nc2N1 (stereo not drawn)         230
2  N#CC1=C(C2CCC2)Nc2n[nH]cc2C1c1cccc2nonc12 (stereo not drawn)         194
3  CC(C)(C)OC(=O)N1CCOC(C2=C(C#N)C(c3cccc(C#N)c3Br)c3c[nH]nc3N2)C1 (stereo not drawn)         219
4  CCCC1=C(C(=O)OCC)C(c2ccccc2SC)c2c[nH]nc2N1 (stereo not drawn)         198

* * *

test.readout: melting point (°C)

>>> df
                                   compound  units_symbol  test_value
0  CCOC(=O)C1=C(c2ccccc2)Nc2n[nH]cc2C1c1ccccc1OC (centres unmarked) [Example 92]            °C         195
1  N#CC1=C(c2ccc3ccccc3c2)Nc2n[nH]cc2C1c1cccc2nonc12 (centres unmarked) [Example 172]            °C         228
2  CCOC(=O)C1=C(CC)Nc2n[nH]cc2C1c1ccccc1Cl (centres unmarked) [Example 82]            °C         213

* * *

Here we list compounds with their recorded IC50 when tested on rabbit GSK-3β (Oryctolagus cuniculus, UniProt G1T8E2).
Sequence (G1T8E2 1-432): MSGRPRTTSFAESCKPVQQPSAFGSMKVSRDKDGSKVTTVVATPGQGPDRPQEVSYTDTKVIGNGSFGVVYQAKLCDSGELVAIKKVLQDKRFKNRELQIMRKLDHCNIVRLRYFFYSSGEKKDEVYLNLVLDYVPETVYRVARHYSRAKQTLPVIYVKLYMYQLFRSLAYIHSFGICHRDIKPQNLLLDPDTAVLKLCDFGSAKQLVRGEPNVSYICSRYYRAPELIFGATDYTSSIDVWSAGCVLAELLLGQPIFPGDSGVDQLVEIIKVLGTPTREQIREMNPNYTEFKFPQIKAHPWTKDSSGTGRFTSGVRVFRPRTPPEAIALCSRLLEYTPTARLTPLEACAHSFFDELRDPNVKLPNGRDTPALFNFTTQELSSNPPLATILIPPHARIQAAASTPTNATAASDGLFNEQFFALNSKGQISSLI
Structures can show the parent of a compound that is named as a salt.
test.readout: IC50 (nM)

>>> df
                                   compound                           subject_of_test  test_readout  units_symbol  test_value
0  CNC(C)C1=C(C#N)C(c2cccc(C#N)c2Br)c2c[nH]nc2N1 (stereo not shown) [Example 1155, Hydrochloride]  rabbit GSK-3β (Oryctolagus cuniculus, UniProt G1T8E2)          IC50            nM         2.2
1  CN(C)C1CCC(C2=C(C#N)C(c3cccc4nonc34)c3c[nH]nc3N2)CC1 (stereo not shown)  rabbit GSK-3β (Oryctolagus cuniculus, UniProt G1T8E2)          IC50            nM         4.1

I: N#CC1=C([C@@H]2C[C@H]3CC[C@@H]2NC3)Nc2n[nH]cc2C1c1cccc(C#N)c1Br (stereo partly shown) [Example 1146, Hydrochloride]
II: CN1CCC(C2=C(C#N)C(c3cccc4nonc34)c3c[nH]nc3N2)CC1 (stereo not shown)
### Prompt Compare IC50: is it lower for I or for II ? // caller expects the label of the chosen entry
### Response I
(I: 0.61 nM, II: 2.5 nM)
